- EXPERIMENT NOTES: yeast display, Sf9 membrane polyspecificity reagent, FACS + sequencing; frameworks hold sequencing errors

ORDERED RESIDUES | polyreactivity (PSR sort gate)
QVQLVESGGGLVQAGGSLRLSCAASGSTFRTYTMGWYRQAPGKERELVAAISSIGSSTFYADSVKGRFTISRDNAKNTVYLQMISLKPEDTAVYYCAAVRRGGGVIYDYWGQGTQVTVSS | high polyreactivity
QVQLVESGGVLVQAGGSLRLSCAASGRTFGVYAMGWYRQAPGKERELVATITSVDRTNYADSVKGRFTISRDNAKNTVYLQMNSLKTEDTAVYYCAAVGRWPLYYYWGQGTQVTVSS | high polyreactivity

---

- EXPERIMENT NOTES: yeast display, Sf9 membrane polyspecificity reagent, FACS + sequencing; frameworks hold sequencing errors
PARAMETER MEASURED: polyreactivity (PSR sort gate)

ORDERED RESIDUES | DATA VALUE
QVQLVESGGGLVQAGGSLRLSCAASGGTLKYYAMGLYRQAPGKERELVATISSRGGSTYYADSVKGRFTISRDNAKNTVYLQMNSLKPEDTAVYYCARRYWVQSRYPEMDYWGQGTQVTVSS | high polyreactivity
QVQLVESGGGLVQAGGSLRLSCPASGGTFYVYAMGGYRQEPGKERELVAAISTSDGITYYADSVKGRFTISRDNAKNNVYLQMNSLKPEDTAVYYCAAVYAGVGSPVKRDYWGLGTQVTVSS | high polyreactivity

---

- EXPERIMENT NOTES: yeast display, Sf9 membrane polyspecificity reagent, FACS + sequencing; frameworks hold sequencing errors
PARAMETER MEASURED: polyreactivity (PSR sort gate)

Below are worked cases with known answers.
ORDERED RESIDUES | polyreactivity (PSR sort gate)
QVQLVESGGGLVQAGGSLRLSCAASGRIFYYYAMGWYRQAPGKERELVAVISRGGRTKYADSVKGRFTISRDNAKNTVYLQMNSLKPEDTAFYYCAAYPSYYGDSGLRYDYWGQGTQVPVSS | high polyreactivity
QVQLVESGGGLVQAGGSLRLSCAASGINFWYYAMVGYRQATGKERELDAAITGGSTYYADSVKGRFTISRDNAKNTVYLQMISLKQEDTAVYYCNADSVFEYWDYDYWGQGTQVTVSS | low polyreactivity
QVQLVESGGGLVQAGGSLRLSCAASGSIFNINAMGWYRQAPGKERELVAAITTSGGRTYYADSVKGRFTISRDNAKNTVYLQMNSLKPEVTAVYYCATSHYGSTGNYWGQGTQVTVSS | low polyreactivity
QVQHVESGGGLVQAGGSLRLSCAASGRIFYSNTMGWYRQAPGKERELVAAITWRGGRTHYADSVKGRFTISRDNAKNTVYLQMNSLKPEDTAVYYCAARYIPIQYPSYRTWGGYSWGQGTQVTVSS | high polyreactivity
QVQLVESGGGLVQAGGSLRLSCAASGSTFASNAMGWYRQAPGKARELVAGISSSDGGTYYADSVKGRFTISRDIAKYNVYLEMKSLKPEDTAVYSCNAPPGTFQWQGHSDYWGQGTEVTVSS | low polyreactivity

Q: Name the reported polyreactivity (PSR sort gate) value associated with the sequence QVQLVESGGGLVQAGGSLRLSCAASGGTFTHNAMGWYRQAPGKERELVAAISSSGVRTYYADSVKGRFTISRDNAKNTVYLQMNSLKPEDTAVYYCAADRFRRLHYWTYDYWGQGTQVTVSS
Ans: high polyreactivity

Q: Another sequence to look at: QVQLVESGGGLVQAGGSLRLSCAASGRILHRNAMGWYRQAPGKERELVSAIRSRGGGTYYADSVKGRFTISRDNAKNTVYLQMKSLKPEDTAVYYCNTDRSTRTVGPGLYGYWGQGTQVTVSS
Ans: low polyreactivity

Q: Another sequence to look at: QVQLVESGGGLVQAGGSLRLSCAASGRTINGNTMGWYRQAPGKERELVAVIDWSGGSTYYADSVKGRFTISRDTAKNTVYLQMNSLKPEDTAVYFCATVSGYAYYYWGQGTQVTVSS
Ans: low polyreactivity

Q: Another sequence to look at: QVQLVESVGGLVQAGGSLRLTCAASGIIFAWYVMGWYRQAPGKERELVAAITQSGGSTFYADSVKGRFTISRDNAKNTVYLQMNSLKPEDTAVYYCNTEDFVNVPEMDSWGQGTQVTVSS
Ans: low polyreactivity

Q: Another sequence to look at: QVQLVESGGGLVQAGGSLRLSCAASGSTFAQYAMGWYRQAPGKERELVAAISRGGGSTYYADSVKGRFTISRDNAKNTVYLQMNSLKPEDTAVYYCNARTSHYDKYGYWGQGTQVTVSS
Ans: high polyreactivity

Q: Another sequence to look at: QVQLVESGGGLVQAGGSLRLSCAASGSIFGYNVMGWYRQAPGKEREFVAAITYRGGGTYADSVKGRFTISRDNAKNTVYLQMNSLKPEDTAVYYCAARWYGWRSRRYDYWGQGTQVTVSS
Ans: high polyreactivity

Q: Another sequence to look at: QVQLVESGGGLVQAGGSLRLSCAASGSTFPLYAMGWYRQAPGKERELVAAITWSGANTYYADSVKGRFTISRDNAKNTVYLQMNSLKPEDTAVYYCAALYYWDQPQLEFSYWGQGTQVTVSS
Ans: low polyreactivity

Q: Another sequence to look at: QVQLVESGGGLVQAGGSLRLSCASSGRTFSYYAMGWYRQAPGKERELVAAISTSGGSTYYADSVKGRFTISRDNAKNTVYLQMNSLKPEDTAVYYWAASPYLRFLYGGFGYWGQGTEVTVSS
Ans: high polyreactivity
